FYI, the data here is from patent US20260069689A1.

// reported t½ at pH 6.0 for each item listed
Target: SARS-COV-2 RBD-MMH (SARS-COV-2 RBD extracellular domain with C-terminal myc-myc-hexahistidine tag) (SARS-CoV-2)
READOUT: t½ at pH 6.0 (min)

| BINDER | READOUT | ENDPOINT RESULT |
| --- | --- | --- |
| mAb14283 (antibody, V domains shown) VH: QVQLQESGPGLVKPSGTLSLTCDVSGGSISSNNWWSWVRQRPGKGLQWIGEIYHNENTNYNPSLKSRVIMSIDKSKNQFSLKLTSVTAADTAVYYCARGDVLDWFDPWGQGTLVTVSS VL: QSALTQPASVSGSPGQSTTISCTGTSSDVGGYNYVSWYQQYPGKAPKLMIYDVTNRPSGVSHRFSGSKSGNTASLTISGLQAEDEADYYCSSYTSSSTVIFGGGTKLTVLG | t½ at pH 6.0 | 5.8 |
| mAb14255 (antibody, V domains shown) VH: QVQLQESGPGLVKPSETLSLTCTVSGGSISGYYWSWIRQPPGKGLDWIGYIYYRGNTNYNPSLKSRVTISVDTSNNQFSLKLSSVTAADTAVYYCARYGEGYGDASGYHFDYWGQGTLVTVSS VL: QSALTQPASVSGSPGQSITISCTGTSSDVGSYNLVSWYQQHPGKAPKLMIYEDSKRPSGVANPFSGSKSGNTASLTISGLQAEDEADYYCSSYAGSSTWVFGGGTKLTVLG | t½ at pH 6.0 | 2.3 |
| mAb14258 (antibody, V domains shown) VH: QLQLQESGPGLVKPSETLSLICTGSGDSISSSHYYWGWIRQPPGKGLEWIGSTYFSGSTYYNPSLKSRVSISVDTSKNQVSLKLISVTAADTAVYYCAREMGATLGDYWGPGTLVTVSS VL: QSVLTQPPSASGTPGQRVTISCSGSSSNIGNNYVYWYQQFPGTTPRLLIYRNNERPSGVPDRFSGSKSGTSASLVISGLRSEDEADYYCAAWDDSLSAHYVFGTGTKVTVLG | t½ at pH 6.0 | 21.1 |
| mAb13459 (antibody, V domains shown) VH: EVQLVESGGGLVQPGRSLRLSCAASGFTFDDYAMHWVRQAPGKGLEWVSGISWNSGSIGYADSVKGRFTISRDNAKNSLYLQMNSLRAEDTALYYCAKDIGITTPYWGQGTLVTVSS VL: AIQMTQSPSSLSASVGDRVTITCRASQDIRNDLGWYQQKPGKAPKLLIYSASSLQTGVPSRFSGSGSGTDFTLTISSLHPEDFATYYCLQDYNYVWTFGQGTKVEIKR | t½ at pH 6.0 | 4.8 |
| mAb14286 (antibody, V domains shown) VH: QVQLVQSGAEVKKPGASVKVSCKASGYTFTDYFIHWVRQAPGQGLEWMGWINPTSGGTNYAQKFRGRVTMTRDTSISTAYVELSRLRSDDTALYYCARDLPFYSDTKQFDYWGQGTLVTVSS VL: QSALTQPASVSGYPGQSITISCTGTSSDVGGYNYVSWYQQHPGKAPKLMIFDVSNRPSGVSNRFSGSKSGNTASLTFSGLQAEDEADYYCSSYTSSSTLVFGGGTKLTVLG | t½ at pH 6.0 | 1.2 |
